Sourced from patent US9598463B2

assay: Stability of test peptides in human plasma (LC/MS/MS, first order half-life); type: in vitro ADME; conditions: Plasma t1/2 (1st exp.)
Where a SMILES comes first, the peptide text is derived from it. The star is where a group is joined. Myristoyl = CCCCCCCCCCCCCC(=O)*
Reported Endpoint: half-life (h)

[
  {
    "Compound": "CCCCCCCCCCCCCC(=O)NCC(=O)N[C@@H](C)C(=O)N[C@@H](CCC(N)=O)C(=O)N[C@@H](Cc1ccccc1)C(=O)N[C@@H](CO)C(=O)N[C@@H](CCCCN)C(=O)N[C@H](C(=O)N[C@@H](C)C(=O)N[C@@H](C)C(=O)N[C@@H](CCCCN)C(=O)O)[C@@H](C)O [myr-peptide 106] (Myristoyl-GAQFSKTAAK-OH)",
    "Data Value": 1.23
  }
]

---

assay: Qualitative solubility of test peptides in 0.5 N saline; type: physicochemical; settings: pH 6.5, 20° C. (table title)
Where a SMILES comes first, the peptide text is derived from it. The star is where a group is joined. Myristoyl = CCCCCCCCCCCCCC(=O)*
Entries and their solubility

[
  {
    "Compound": "CCCCCCCCCCCCCC(=O)N[C@@H](C)C(=O)N[C@@H](C)C(=O)N[C@@H](CCCCN)C(=O)NCC(=O)N[C@@H](CCC(=O)O)C(=O)N[C@@H](C)C(=O)O [myr-peptide 179] (Myristoyl-AAKGEA-OH)",
    "solubility": "< 1000 µg/mL"
  },
  {
    "Compound": "CCCCCCCCCCCCCC(=O)NCC(=O)N[C@@H](CCCCN)C(=O)N[C@@H](CCC(N)=O)C(=O)N[C@@H](Cc1ccccc1)C(=O)N[C@@H](CO)C(=O)N[C@@H](CCCCN)C(=O)N[C@H](C(=O)N[C@@H](C)C(=O)N[C@@H](C)C(=O)N[C@@H](CCCCN)C(=O)NCC(=O)N[C@@H](CCC(=O)O)C(=O)O)[C@@H](C)O [myr-peptide 233] (Myristoyl-GKQFSKTAAKGE-OH)",
    "solubility": "> 3000 µg/mL"
  },
  {
    "Compound": "CCCCCCCCCCCCCC(=O)N[C@@H](C)C(=O)N[C@@H](CCCCN)C(=O)NCC(=O)N[C@@H](CCC(=O)O)C(=O)N[C@@H](C)C(=O)N[C@@H](C)C(=O)N[C@@H](C)C(=O)N[C@@H](CCC(=O)O)C(=O)N[C@@H](CCCNC(=N)N)C(=O)N1CCC[C@H]1C(=O)NCC(=O)N[C@@H](CCC(=O)O)C(=O)N[C@@H](C)C(=O)N[C@@H](C)C(=O)N[C@H](C(=O)N[C@@H](C)C(=O)O)C(C)C [myr-peptide 45] (Myristoyl-AKGEAAAERPGEAAVA-OH)",
    "solubility": "> 80000 µg/mL"
  }
]

---

assay: Stability of test peptides in human BALF (LC/MS/MS, first order half-life); assay type: in vitro ADME; details: cerebrospinal or other body fluid, human BALF from COPD patients, 2nd experiment, read-out: BALF t1/2 (2nd exp.) (converted)
Where a SMILES comes first, the peptide text is derived from it. The star is where a group is joined. Myristoyl = CCCCCCCCCCCCCC(=O)*
Reported Endpoint: half-life (h)

[
  {
    "Compound": "CCCCCCCCCCCCCC(=O)NCC(=O)N[C@@H](C)C(=O)N[C@@H](CCC(N)=O)C(=O)N[C@@H](C)C(=O)N[C@@H](CO)C(=O)N[C@@H](CCCCN)C(=O)N[C@H](C(=O)N[C@@H](C)C(=O)N[C@@H](C)C(=O)N[C@@H](CCCCN)C(N)=O)[C@@H](C)O [myr-peptide 236-NH2] (Myristoyl-GAQASKTAAK-NH2)",
    "Reported Endpoint": "half-life",
    "Data Value": 4.08
  },
  {
    "Compound": "CCCCCCCCCCCCCC(=O)NCC(=O)N[C@@H](C)C(=O)N[C@@H](CCC(N)=O)C(=O)N[C@@H](C)C(=O)N[C@@H](CO)C(=O)N[C@@H](CCCCN)C(=O)N[C@H](C(=O)N[C@@H](C)C(=O)N[C@@H](C)C(=O)N[C@@H](CCCCN)C(=O)O)[C@@H](C)O [myr-peptide 236] (Myristoyl-GAQASKTAAK-OH)",
    "Reported Endpoint": "half-life",
    "Data Value": 2.94
  },
  {
    "Compound": "CCCCCCCCCCCCCC(=O)NCC(=O)N[C@@H](C)C(=O)N[C@@H](CCC(N)=O)C(=O)N[C@@H](Cc1ccccc1)C(=O)N[C@@H](CO)C(=O)N[C@@H](CCCCN)C(=O)N[C@H](C(=O)N[C@@H](C)C(=O)N[C@@H](C)C(=O)N[C@@H](CCCCN)C(N)=O)[C@@H](C)O [myr-peptide 106-NH2] (Myristoyl-GAQFSKTAAK-NH2)",
    "Reported Endpoint": "half-life",
    "Data Value": 12.8
  }
]

---

Assay: Qualitative solubility of test peptides in 0.5 N saline
Format: physicochemical
Details: pH 6.5, 20° C. (table title)
Experimental: Various test peptides (1 to 5 mg each) were weighed out accurately in individual 2 mL screw cap glass vials and aliquots of 25 μL of 0.5 N saline, pH 6.5, were added at 25° C. and ambient pressure. The solubility was evaluated visually. If the test peptide dissolves completely with the first aliquot of saline, its solubility was calculated and designated as more than the calculated amount. […]
Where a SMILES comes first, the peptide text is derived from it. The star is where a group is joined. Myristoyl = CCCCCCCCCCCCCC(=O)*
Reported Endpoint: solubility

[
  {
    "Compound": "CCCCCCCCCCCCCC(=O)N[C@@H](CCCNC(=N)N)C(=O)N1CCC[C@H]1C(=O)NCC(=O)N[C@@H](CCC(=O)O)C(=O)N[C@@H](C)C(=O)N[C@@H](C)C(=O)N[C@H](C(=O)N[C@@H](C)C(=O)O)C(C)C [myr-peptide 153] (Myristoyl-RPGEAAVA-OH)",
    "Reported Endpoint": "solubility",
    "Data Value": "< 10 mg/mL"
  },
  {
    "Compound": "CC(=O)N[C@@H](C)C(=O)N[C@@H](C)C(=O)NCC(=O)N[C@@H](CCC(=O)O)C(=O)O [Ac-peptide 251] (Ac-AAGE-OH)",
    "Reported Endpoint": "solubility",
    "Data Value": "> 200 mg/mL"
  },
  {
    "Compound": "CCCCCCCCCCCCCC(=O)N[C@@H](C)C(=O)N[C@@H](CCCCN)C(=O)NCC(=O)N[C@@H](CCC(=O)O)C(=O)O [myr-peptide 219] (Myristoyl-AKGE-OH)",
    "Reported Endpoint": "solubility",
    "Data Value": "< 1 mg/mL"
  },
  {
    "Compound": "CCCCCCCCCCCCCC(=O)NCC(=O)N[C@@H](CCCCN)C(=O)N[C@@H](CCC(N)=O)C(=O)N[C@@H](Cc1ccccc1)C(=O)N[C@@H](CO)C(=O)N[C@@H](CCCCN)C(=O)N[C@H](C(=O)N[C@@H](CCCCN)C(=O)N[C@@H](C)C(=O)N[C@@H](CCCCN)C(=O)NCC(=O)N[C@@H](CCC(=O)O)C(=O)O)[C@@H](C)O [myr-peptide 235] (Myristoyl-GKQFSKTKAKGE-OH)",
    "Reported Endpoint": "solubility",
    "Data Value": "> 60 mg/mL"
  }
]

---

experiment: Stability of test peptides in human BALF (LC/MS/MS, first order half-life); type: in vitro ADME; conditions: cerebrospinal or other body fluid, human BALF from COPD patients, 1st experiment, read-out: BALF t1/2 (1st exp.) (converted)
Where a SMILES comes first, the peptide text is derived from it. The star is where a group is joined. Myristoyl = CCCCCCCCCCCCCC(=O)*
Entries and their half-life

[
  {
    "Molecule": "CCCCCCCCCCCCCC(=O)NCC(=O)N[C@@H](C)C(=O)N[C@@H](CCC(N)=O)C(=O)N[C@@H](Cc1ccccc1)C(=O)N[C@@H](CO)C(=O)N[C@@H](CCCCN)C(=O)N[C@H](C(=O)N[C@@H](C)C(=O)N[C@@H](C)C(=O)N[C@@H](CCCCN)C(N)=O)[C@@H](C)O [myr-peptide 106-NH2] (Myristoyl-GAQFSKTAAK-NH2)",
    "half-life (h)": 10.5
  },
  {
    "Molecule": "CCCCCCCCCCCCCC(=O)NCC(=O)N[C@@H](C)C(=O)N[C@@H](CCC(N)=O)C(=O)N[C@@H](C)C(=O)N[C@@H](CO)C(=O)N[C@@H](CCCCN)C(=O)N[C@H](C(=O)N[C@@H](C)C(=O)N[C@@H](C)C(=O)N[C@@H](CCCCN)C(=O)O)[C@@H](C)O [myr-peptide 236] (Myristoyl-GAQASKTAAK-OH)",
    "half-life (h)": 3.55
  },
  {
    "Molecule": "CCCCCCCCCCCCCC(=O)NCC(=O)N[C@@H](C)C(=O)N[C@@H](CCC(N)=O)C(=O)N[C@@H](C)C(=O)N[C@@H](CO)C(=O)N[C@@H](CCCCN)C(=O)N[C@H](C(=O)N[C@@H](C)C(=O)N[C@@H](C)C(=O)N[C@@H](CCCCN)C(N)=O)[C@@H](C)O [myr-peptide 236-NH2] (Myristoyl-GAQASKTAAK-NH2)",
    "half-life (h)": 4.16
  }
]
